- assay.system: Tyrosinase (Agaricus bisporus)
- assay.info: Inhibition of mushroom tyrosinase assessed as oxidation of L-DOPA
# ID50 listing for each entry below
Value expressed in mM; do not type the unit.

- compound: "CCC/C=C\\C/C=C\\CCCCCCCc1cccc(O)c1C(=O)O"
  readout.value: 6
- compound: "CCCCCC/C=C\\CCCCCCCc1cccc(O)c1C(=O)O"
  readout.value: 7.5
- compound: "C=CC/C=C\\C/C=C\\CCCCCCCc1cccc(O)c1C(=O)O (stereo in doubt; 8)"
  readout.value: 4.2

Hello, please tell me recorded ID50 for this one: C=CC/C=C\C/C=C\CCCCCCCc1cc(O)cc(O)c1 0.04

Hello, please tell me recorded ID50 for this one: Oc1cccc(O)c1 1.2

Hello, please tell me recorded ID50 for this one: C=CC/C=C\C/C=C\CCCCCCCc1cccc(O)c1C(=O)O (stereo in doubt; 5) 1.1

Hello, please tell me recorded ID50 for this one: OC[C@H]1O[C@@H](Oc2ccc(O)cc2)[C@H](O)[C@@H](O)[C@@H]1O 6.2

Hello, please tell me recorded ID50 for this one: O=C(O)c1ccccc1O 3.9
